Origin of values: ChEMBL document CHEMBL1165884

test system: Caco-2; experiment: Cytotoxicity against human Caco-2 cells after 48 hrs; conditions: Caco-2, 48 h
Readout: IC50 (µg/mL)

molecule=Cc1ccc(NC(=O)c2c(-c3ccccc3)c(-c3ccc(Cl)cc3)nn2-c2ccccc2)cc1 recorded_value=0.67
molecule=O=C(Nc1ccccc1)c1c(-c2ccccc2)c(-c2ccccc2)nn1-c1ccccc1 recorded_value=1.68
molecule=Cc1ccc(NC(=O)c2c(-c3ccc(Cl)cc3)c(-c3ccccc3)nn2-c2ccccc2)cc1 recorded_value=1.54
molecule=O=C(c1c(-c2ccccc2)c(-c2ccccc2)nn1-c1ccccc1)n1c(=S)[nH]c2ccccc21 recorded_value=1.48
molecule=O=C(Nc1ccccc1)c1c(-c2ccc(Cl)cc2)c(-c2ccccc2)nn1-c1ccccc1 recorded_value=1.74
molecule="COc1cccc2c1C(=O)c1c(O)c3c(c(O)c1C2=O)C[C@@](O)(C(=O)CO)C[C@@H]3O[C@H]1C[C@H](N)[C@H](O)[C@H](C)O1 [DOXORUBICIN]" recorded_value=1
molecule=Cc1ccc(NC(=O)c2c(-c3ccccc3)c(-c3ccccc3)nn2-c2ccccc2)cc1 recorded_value=2.21
molecule=O=C(c1c(-c2ccc(Cl)cc2)c(-c2ccccc2)nn1-c1ccccc1)n1c(=S)[nH]c2ccccc21 recorded_value=3.29
